The values you see were collected from paper PMC7589491.

Assay: Franz–PAMPA permeation study (lipid-impregnated artificial membrane on Franz cells)
Settings: metoprolol as high permeability marker, best fit method
endpoint: Permeability classification in Franz–PAMPA

# compound, reported.result
measured = [
    ("Cn1c(=O)c2c(ncn2C)n(C)c1=O", "highly permeable"),
    ("CC(C)NCC(O)COc1cccc2ccccc12 (stereo not shown)", "highly permeable"),
    ("CN/C(=N/CCSCc1nc[nH]c1C)NC#N", "highly permeable"),
]

====

Assay: in vitro
Details: PAMPA, pH 7.4, Papp Non-Sink Arthurson
endpoint: Papp at 12 h, 10 mg/mL (×10⁻⁶ cm/s)

1. NS(=O)(=O)c1cc2c(cc1Cl)NCNS2(=O)=O [Hydrochlorothiazide]
2. O=C(O)Cc1ccccc1Nc1c(Cl)cccc1Cl
IN: Higher Papp at 12 h, 10 mg/mL between 1 and 2 ? Please indicate the selected item by its label.
OUT: 2

====

Experiment: Franz–PAMPA permeation study (lipid-impregnated artificial membrane on Franz cells)
Conditions: PAMPA, pH 7.4, Papp Franz–PAMPA, PBS pH 7.4, 37 °C, 500 rpm, 12 h, n = 3, best fit of linear portion (sink equation)
endpoint: Papp at 12 h, 10 mg/mL (×10⁻⁶ cm/s)

P. Nc1nc2c(ncn2COCCO)c(=O)[nH]1 [Acyclovir]
Q. CC(C(=O)O)c1cccc(C(=O)c2ccccc2)c1 (centres unmarked) [Ketoprofen]
R. COc1cc(Cc2cnc(N)nc2N)cc(OC)c1OC [Trimethoprim]
S. CN/C(=N/CCSCc1nc[nH]c1C)NC#N [Cimetidine]
IN: List these items ordered by Papp at 12 h, 10 mg/mL, big to small. # answer = labels listed in requested order
OUT: S, Q, R, P

====

Test: Franz–PAMPA permeation study (lipid-impregnated artificial membrane on Franz cells)
Details: PAMPA, pH 7.4, Papp across Franz–PAMPA
endpoint: Papp at 12 h, 10 mg/mL (×10⁻⁶ cm/s)

a. OC[C@@H](O)[C@@H](O)[C@H](O)[C@H](O)CO
b. COCCc1ccc(OCC(O)CNC(C)C)cc1 (centres unmarked)
IN: Of the two listed items, which has the higher Papp at 12 h, 10 mg/mL? First: a Second: b Write the label of whichever entry you select.
OUT: b
(b: 16.1 ×10⁻⁶ cm/s, a: 0.32 ×10⁻⁶ cm/s)

====

Experiment: Dose number (D0) in donor compartment
Type: physicochemical
Details: 10 mg/mL in donor, not under infinite dose conditions
Reported D0 values follow for various molecules

Example results:
# molecule, D0
rows = [
    ("Cn1c(=O)c2c(ncn2C)n(C)c1=O [Caffeine]", "≤ 0.01"),
    ("CNC(=C[N+](=O)[O-])NCCSCc1ccc(CN(C)C)o1 [Ranitidine]", "≤ 0.01"),
    ("CC(C)NCC(O)COc1ccc(CC(N)=O)cc1 (stereo not drawn) [Atenolol]", "≤ 0.01"),
    ("CC(C)NCC(O)COc1cccc2ccccc12 (stereo not drawn) [Propranolol]", "≤ 0.01"),
    ("COCCc1ccc(OCC(O)CNC(C)C)cc1 (stereo not drawn) [Metoprolol]", "≤ 0.01"),
]

Please find the next molecule below.
IN: Any idea what its D0 is? The molecule is COc1ccc2cc([C@H](C)C(=O)O)ccc2c1 [Naproxen]
OUT: ≤ 0.01

====

Test: in vitro
Details: PAMPA, pH 7.4, Papp Franz–PAMPA
endpoint: Papp at 12 h, 10 mg/mL (×10⁻⁶ cm/s)

P. O=C(O)Cc1ccccc1Nc1c(Cl)cccc1Cl
Q. NS(=O)(=O)c1cc2c(cc1Cl)NCNS2(=O)=O [Hydrochlorothiazide]
IN: Just curious, which one has the larger Papp at 12 h, 10 mg/mL reading, P or Q ? Return value: the label identifying the chosen record.
OUT: P

====

Assay: Permeation across non-impregnated membrane on Franz cells
Format: in vitro ADME
Conditions: PAMPA, pH 7.4; as worded; read-out: Papp non-impregnated one across Franz–PAMPA
endpoint: Papp at 10 mg/mL (×10⁻⁶ cm/s)

A. COCCc1ccc(OCC(O)CNC(C)C)cc1 (centres unmarked) [Metoprolol]
B. OC[C@@H](O)[C@@H](O)[C@H](O)[C@H](O)CO [Mannitol]
IN: Pick the one with the larger Papp at 10 mg/mL: A vs B Please indicate the selected item by its label.
OUT: A

====

Experiment: Franz–PAMPA permeation study (lipid-impregnated artificial membrane on Franz cells)
Conditions: PAMPA, pH 7.4, Papp Non-Sink Arthurson, Franz–PAMPA data, non-sink equation
endpoint: Papp at 12 h, 10 mg/mL (nm/s)

# compound, endpoint, reported.result
measured = [
    ("CN1C(C(=O)Nc2ccccn2)=C(O)c2ccccc2S1(=O)=O", "Papp at 12 h, 10 mg/mL", 96),
    ("CC1(C)S[C@@H]2[C@H](NC(=O)[C@H](N)c3ccc(O)cc3)C(=O)N2[C@H]1C(=O)O", "Papp at 12 h, 10 mg/mL", 0.7),
]

A. CC(C)NCC(O)COc1cccc2ccccc12 (centres unmarked)
B. COc1cc(Cc2cnc(N)nc2N)cc(OC)c1OC
C. Nc1nc2c(ncn2COCCO)c(=O)[nH]1
IN: List these items ordered by Papp at 12 h, 10 mg/mL, big to small. Answer by writing out the labels in the requested order.
OUT: A, B, C

====

Experiment: Franz–PAMPA permeation study (lipid-impregnated artificial membrane on Franz cells)
Settings: PAMPA, pH 7.4, Papp Franz–PAMPA, PBS pH 7.4, 37 °C, 500 rpm, 12 h, n = 3, best fit of linear portion (sink equation)
endpoint: Papp at 12 h, 10 mg/mL (×10⁻⁶ cm/s)

Some compounds with recorded Papp at 12 h, 10 mg/mL:
# compound, Papp at 12 h, 10 mg/mL, ×10⁻⁶ cm/s
rows = [
    ("CNC(=C[N+](=O)[O-])NCCSCc1ccc(CN(C)C)o1", 6.81),
    ("CC(C)NCC(O)COc1cccc2ccccc12 (stereo not shown)", 33.1),
    ("CC1(C)S[C@@H]2[C@H](NC(=O)[C@H](N)c3ccc(O)cc3)C(=O)N2[C@H]1C(=O)O", 0.85),
    ("NC(=O)N1c2ccccc2C=Cc2ccccc21 [Carbamazepine]", 5.97),
    ("Cn1c(=O)c2c(ncn2C)n(C)c1=O", 36.2),
]

a. COCCc1ccc(OCC(O)CNC(C)C)cc1 (stereo not shown)
b. CN1C(C(=O)Nc2ccccn2)=C(O)c2ccccc2S1(=O)=O
IN: Choose between a and b : whose measured Papp at 12 h, 10 mg/mL value is numerically larger? Bench note: the answer is the label of the chosen record.
OUT: a
(a: 15.8 ×10⁻⁶ cm/s, b: 11 ×10⁻⁶ cm/s)
